# Tested system: recombinant full-length FEN-1 (Homo sapiens (Human), UniProt P39748)
# Sequence (P39748 whole entry): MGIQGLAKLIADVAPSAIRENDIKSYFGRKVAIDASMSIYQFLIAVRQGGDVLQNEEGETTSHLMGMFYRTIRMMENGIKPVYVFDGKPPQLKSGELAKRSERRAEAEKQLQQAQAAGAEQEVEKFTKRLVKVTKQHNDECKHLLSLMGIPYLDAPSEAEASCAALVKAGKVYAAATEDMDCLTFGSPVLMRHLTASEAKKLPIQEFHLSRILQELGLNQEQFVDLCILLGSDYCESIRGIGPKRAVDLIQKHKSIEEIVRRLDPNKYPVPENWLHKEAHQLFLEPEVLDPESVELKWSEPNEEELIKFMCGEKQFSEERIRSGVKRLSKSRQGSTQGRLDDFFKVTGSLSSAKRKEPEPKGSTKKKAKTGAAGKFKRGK
# Protocol: Fluorogenic biochemical (enzymatic) assay, FEN-1
# Run parameters: 200 nM DNA flap substrate, 50 mM Tris pH 8.0, 10 mM MgCl2, 2-4 hours at 25° C. or 37° C., read-out: SMD FEN-1 IC50
Reported pIC50 values follow for various molecules
To interpret pIC50, take it as minus log10 of a concentration measured in moles per litre.

Below, each entry is followed by its recorded pIC50 result.
[
  {
    "Given smiles": "O=c1[nH]c2cc(S(=O)(=O)c3ccccc3)ccc2c(=O)n1O",
    "pIC50": 7.10
  },
  {
    "Given smiles": "Cc1cc(F)cc(S(=O)(=O)c2ccc(Cl)c3c(=O)n(O)c(=O)[nH]c23)c1",
    "pIC50": 8.07
  },
  {
    "Given smiles": "O=c1[nH]c2c(S(=O)(=O)c3cccc(C(F)(F)F)c3)cccc2c(=O)n1O",
    "pIC50": 7.88
  }
]

Request: Indicate the recorded pIC50 value for this molecule: `COc1ccc(S(=O)(=O)c2cccc(C)c2)c2[nH]c(=O)n(O)c(=O)c12`
Result: 8.03

Request: Indicate the recorded pIC50 value for this molecule: `O=c1[nH]c2c(S(=O)(=O)c3cc(F)cc(F)c3)cccc2c(=O)n1O`
Result: 7.89

Request: Indicate the recorded pIC50 value for this molecule: `O=c1[nH]c2cc(F)ccc2c(=O)n1O`
Result: 6.77

Request: Indicate the recorded pIC50 value for this molecule: `O=c1[nH]c2c(S(=O)(=O)c3cc(O)cc(O)c3)cccc2c(=O)n1O`
Result: 8.03

Request: Indicate the recorded pIC50 value for this molecule: `Cc1cccc(S(=O)(=O)c2cccc3c(=O)n(O)c(=O)[nH]c23)c1`
Result: 7.84

Request: Indicate the recorded pIC50 value for this molecule: `O=c1[nH]c2c(Cc3ccccc3)cccc2c(=O)n1O`
Result: 7.27

Request: Indicate the recorded pIC50 value for this molecule: `O=c1[nH]c2c(S(=O)(=O)c3cccc(Nc4ccccn4)c3)cccc2c(=O)n1O`
Result: 7.54

Request: Indicate the recorded pIC50 value for this molecule: `O=c1[nH]c2c(-c3ccccc3)cccc2c(=O)n1O`
Result: 6.95

Request: Indicate the recorded pIC50 value for this molecule: `NC(=O)Nc1cccc(S(=O)(=O)c2cccc3c(=O)n(O)c(=O)[nH]c23)c1`
Result: 7.77

Request: Indicate the recorded pIC50 value for this molecule: `Cc1cccc(S(=O)(=O)c2cc(Cl)cc3c(=O)n(O)c(=O)[nH]c23)c1`
Result: 7.96

Request: Indicate the recorded pIC50 value for this molecule: `O=c1[nH]c2nc(S(=O)(=O)c3ccccc3)ccc2c(=O)n1O`
Result: 6.87

Request: Indicate the recorded pIC50 value for this molecule: `CN(C)c1cc(N(C)C)cc(S(=O)(=O)c2cccc3c(=O)n(O)c(=O)[nH]c23)c1`
Result: 7.74

Request: Indicate the recorded pIC50 value for this molecule: `O=c1[nH]c2c(S(=O)(=O)Cc3ccccc3)cccc2c(=O)n1O`
Result: 6.89

Request: Indicate the recorded pIC50 value for this molecule: `O=c1[nH]c2c(S(=O)(=O)c3cccc(F)c3)ccc(Cl)c2c(=O)n1O`
Result: 8.01

Request: Indicate the recorded pIC50 value for this molecule: `COC(=O)Nc1cccc(S(=O)(=O)c2cccc3c(=O)n(O)c(=O)[nH]c23)c1`
Result: 7.89

---

Reported log10(IC50) values follow for various molecules
# Tested system: recombinant full-length FEN-1 (Homo sapiens (Human), UniProt P39748)
# Protocol: Fluorogenic biochemical (enzymatic) assay, FEN-1
# Run parameters: 200 nM DNA flap substrate, 50 mM Tris pH 8.0, 10 mM MgCl2, 2-4 hours at 25° C. or 37° C., read-out: SMD FEN-1 IC50
# Method: Fluorogenic biochemical assays used recombinant full-length FEN-1 or catalytic domains of Exo1, XPG or GEN1 and 200 nM of a DNA substrate (formed by annealing three oligonucleotides—quencher (5′-CACGTTGACTACCGCTCAATCCTGACGAACACATC-BHQ2), flap (5′-TAMRA-GA TGTCAAGCAGTCCTAACTTTGAGGCAGAGTCCGC) and template (5′-GC GGACTCTGCCTCAAGACGGTAGTCAACGTG-3′) (PMID: 21062821)) in 50 mM Tris pH 8.0, 10 mM MgCl2, 1 mM DTT, and 0.01% Tween-20. […]
Hey, these are logged values: log10 of IC50, µM being the unit before logging.

Below, each entry is followed by its recorded log10(IC50) result.
[
  {
    "Given smiles": "Nc1cccc(S(=O)(=O)c2cccc3c(=O)n(O)c(=O)[nH]c23)c1",
    "log10(IC50)": -1.45
  },
  {
    "Given smiles": "O=c1[nH]c2c(S(=O)(=O)c3cc(Br)cc(Br)c3)cccc2c(=O)n1O",
    "log10(IC50)": -1.78
  },
  {
    "Given smiles": "O=c1[nH]c2c(S(=O)(=O)c3cccc(O)c3)cccc2c(=O)n1O",
    "log10(IC50)": -1.80
  },
  {
    "Given smiles": "N#Cc1cccc(S(=O)(=O)c2cccc3c(=O)n(O)c(=O)[nH]c23)c1",
    "log10(IC50)": -1.83
  },
  {
    "Given smiles": "O=c1[nH]c2cc(Cc3ccccc3)ccc2c(=O)n1O",
    "log10(IC50)": -1.01
  }
]

Request: Provide log10(IC50), tested on recombinant full-length FEN-1 (Homo sapiens (Human), UniProt P39748), for `O=c1[nH]c2c(S(=O)(=O)c3ccc4[nH]cnc4c3)cccc2c(=O)n1O` .
Result: -2.25

Request: Provide log10(IC50), tested on recombinant full-length FEN-1 (Homo sapiens (Human), UniProt P39748), for `O=c1[nH]c2c(S(=O)(=O)c3cccs3)cccc2c(=O)n1O` .
Result: -1.94

Request: Provide log10(IC50), tested on recombinant full-length FEN-1 (Homo sapiens (Human), UniProt P39748), for `O=c1[nH]c2cccc(Cl)c2c(=O)n1O` .
Result: -1.68

Request: Provide log10(IC50), tested on recombinant full-length FEN-1 (Homo sapiens (Human), UniProt P39748), for `O=c1[nH]c2c(S(=O)(=O)c3ccccc3)cccc2c(=O)n1O` .
Result: -1.62

Request: Provide log10(IC50), tested on recombinant full-length FEN-1 (Homo sapiens (Human), UniProt P39748), for `O=c1[nH]c2ccc(F)cc2c(=O)n1O` .
Result: -0.67

Request: Provide log10(IC50), tested on recombinant full-length FEN-1 (Homo sapiens (Human), UniProt P39748), for `Cc1cccc(S(=O)(=O)c2ccc(F)c3c(=O)n(O)c(=O)[nH]c23)c1` .
Result: -1.75

Request: Provide log10(IC50), tested on recombinant full-length FEN-1 (Homo sapiens (Human), UniProt P39748), for `COc1cc(OC)cc(S(=O)(=O)c2cccc3c(=O)n(O)c(=O)[nH]c23)c1` .
Result: -1.77

Request: Provide log10(IC50), tested on recombinant full-length FEN-1 (Homo sapiens (Human), UniProt P39748), for `O=c1[nH]c2c(S(=O)(=O)c3cccc(Br)c3)cccc2c(=O)n1O` .
Result: -1.89

---

Reported pIC50 values follow for various molecules
# Tested system: recombinant full-length FEN-1 (Homo sapiens (Human), UniProt P39748)
# Protocol: Fluorogenic biochemical (enzymatic) assay, FEN-1
# Run parameters: 200 nM DNA flap substrate, 50 mM Tris pH 8.0, 10 mM MgCl2, 2-4 hours at 25° C. or 37° C., read-out: SMD FEN-1 IC50
To interpret pIC50, take it as minus log10 of a concentration measured in moles per litre.

Below, each entry is followed by its recorded pIC50 result.
[
  {
    "Given smiles": "COc1cccc(S(=O)(=O)c2cccc3c(=O)n(O)c(=O)[nH]c23)c1",
    "Measurement type": "pIC50",
    "Endpoint result": 7.78
  },
  {
    "Given smiles": "O=c1[nH]c2c(S(=O)(=O)c3cccc(F)c3)cccc2c(=O)n1O",
    "Measurement type": "pIC50",
    "Endpoint result": 8.00
  }
]

Request: Indicate the recorded pIC50 value for this molecule: `O=c1[nH]c2nc(-c3ccccc3)ccc2c(=O)n1O`
Result: 6.41

Request: Indicate the recorded pIC50 value for this molecule: `O=c1[nH]c2c(S(=O)(=O)c3ccccc3)ccc(Cl)c2c(=O)n1O`
Result: 8.00

Request: Indicate the recorded pIC50 value for this molecule: `O=c1[nH]c2c(S(=O)(=O)c3cccc(Nc4ncccn4)c3)cccc2c(=O)n1O`
Result: 7.80

Request: Indicate the recorded pIC50 value for this molecule: `Nc1cc(N)cc(S(=O)(=O)c2cccc3c(=O)n(O)c(=O)[nH]c23)c1`
Result: 8.07

Request: Indicate the recorded pIC50 value for this molecule: `O=c1[nH]c2nc(Cc3ccccc3)ccc2c(=O)n1O`
Result: 7.96

Request: Indicate the recorded pIC50 value for this molecule: `Cc1cccc(S(=O)(=O)c2cc(F)cc3c(=O)n(O)c(=O)[nH]c23)c1`
Result: 7.86

Request: Indicate the recorded pIC50 value for this molecule: `O=c1[nH]c2c(S(=O)(=O)c3ccc(Cl)cc3)cccc2c(=O)n1O`
Result: 7.58
